Study System: CYP2D6 (Homo sapiens, UniProt P10635)
Construct: purchased GenTest (Woburn, Mass., USA)
Sequence (P10635 whole entry): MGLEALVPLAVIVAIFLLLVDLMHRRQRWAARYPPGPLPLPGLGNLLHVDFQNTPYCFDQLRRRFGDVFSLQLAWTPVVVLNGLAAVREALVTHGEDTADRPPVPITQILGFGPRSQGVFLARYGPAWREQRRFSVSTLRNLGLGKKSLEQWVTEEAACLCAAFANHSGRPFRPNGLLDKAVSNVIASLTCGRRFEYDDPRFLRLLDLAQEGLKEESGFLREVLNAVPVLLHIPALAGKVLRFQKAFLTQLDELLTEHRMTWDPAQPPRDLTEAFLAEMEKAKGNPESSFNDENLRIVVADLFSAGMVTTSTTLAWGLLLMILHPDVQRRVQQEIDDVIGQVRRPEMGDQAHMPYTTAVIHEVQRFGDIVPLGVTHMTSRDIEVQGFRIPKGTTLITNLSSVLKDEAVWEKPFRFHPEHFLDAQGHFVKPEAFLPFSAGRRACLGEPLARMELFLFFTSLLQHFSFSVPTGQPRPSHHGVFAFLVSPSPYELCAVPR
Protocol Text: Metabolic stability in CYP2D6 SUPERSOMES
Type: in vitro ADME
Protocol Conditions: human, recombinant human CYP2D6 SUPERSOMES; 1 μM test compound, 2 mM NADPH, 0.1 M potassium phosphate buffer pH 7.4, 37° C., 0-30 minutes, parent remaining by LC-MS/MS; read-out: t1/2 ± SD (calculated in vitro half-life in SUPERSOMES)
Where a name gives a salt, the structure may show the parent alone.
Readout: half-life at 1 μM (min)
Answers are plain numbers, in min.

Molecule | Obs Value
[2H]C([2H])([2H])C([2H])(Oc1ccc2c(c1)[C@]13CCCC[C@@H]1C(C2)N(C)CC3)C([2H])([2H])[2H] (single isomer, unassigned; (+)) | 36

Could you tell me half-life at 1 μM for each of these molecules? They are listed below.
1. [2H]C([2H])([2H])Oc1ccc2c(c1)[C@]13CCCC[C@@H]1[C@H](C2)N(C([2H])([2H])[2H])CC3
2. [2H]C([2H])([2H])C([2H])([2H])Oc1ccc2c(c1)[C@]13CCCC[C@@H]1C(C2)N(C)CC3 (single isomer, unassigned; (+)) [Compound 104, hydrochloride]

Response:
1: 5.6; 2: 49.1
